// values below are reported pIC50
Biological target: GST-ALK5 (Homo sapiens, UniProt P36897)
Sequence (P36897 34-503): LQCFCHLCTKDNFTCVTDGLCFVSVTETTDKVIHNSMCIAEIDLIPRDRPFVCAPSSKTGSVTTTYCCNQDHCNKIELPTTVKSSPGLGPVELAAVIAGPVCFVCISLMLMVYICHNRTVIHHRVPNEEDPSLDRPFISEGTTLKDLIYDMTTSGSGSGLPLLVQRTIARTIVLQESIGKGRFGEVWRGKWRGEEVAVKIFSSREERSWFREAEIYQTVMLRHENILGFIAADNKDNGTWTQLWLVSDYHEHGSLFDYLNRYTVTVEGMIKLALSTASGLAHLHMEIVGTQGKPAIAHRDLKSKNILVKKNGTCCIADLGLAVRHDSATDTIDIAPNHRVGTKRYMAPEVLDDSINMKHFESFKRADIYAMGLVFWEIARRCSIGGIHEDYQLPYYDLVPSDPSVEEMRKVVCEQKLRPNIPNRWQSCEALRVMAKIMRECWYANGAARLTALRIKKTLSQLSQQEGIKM
Experiment: In-vitro (enzyme) kinase assay, 384-well flashplate (Example 36)
Assay type: biochemical
Settings: GST-ALK5, GST-SMAD2 substrate, 3 mM ATP, 30° C., 45 min; read-out: TβR activity (Example 36)
Procedure: In-vitro (Enzyme) Assay for Determination of the Efficacy of Inhibitors of the Inhibition of TGF-beta-Mediated Effects The kinase assay was carried out as 384-well flashplate assay. […] Radioactivity was measured in the TopCount. The IC50 values were calculated using RS1.
pIC50: −log10 of the molar value.

Some solved cases for reference:
>  <SMILES REPRESENTATION>
Fc1ccc(Cl)cc1-c1cc(-c2cncc(-c3ccc(OCCN4CCOCC4)cc3)c2)c2cccnc2n1

>  <pIC50>
> 7.00

$$$$
>  <SMILES REPRESENTATION>
Cc1cccc(-c2cc(-c3cncc(-c4cnn(C)c4)c3)c3cccnc3n2)n1

>  <pIC50>
6.00 to 7.00

$$$$
>  <SMILES REPRESENTATION>
CN1CCC(c2nc(-c3cncc(-c4cc(-c5ccccc5F)nc5ncccc45)c3)no2)CC1

>  <pIC50>
6.00 to 7.00

$$$$
>  <SMILES REPRESENTATION>
CN(C)CCCOc1ccc(-c2cncc(-c3cc(-c4cc(Cl)ccc4F)nc4ncccc34)c2)cc1

>  <pIC50>
> 7.00

$$$$

# ---- query compound ----
Give pIC50 (GST-ALK5 (Homo sapiens, UniProt P36897)) of the following compound: Fc1ccc(Cl)cc1-c1cc(-c2cncc(-c3ccc4c(c3)CNCC4)c2)c2cccnc2n1
> 7.00

Origin of measurements: patent US8912216B2
